What surface tension liquid-gas was measured for each of the following?
Settings: 298.15 K, Ring tensiometer
Answers are plain numbers, in mN/m.

// solved cases for surface tension liquid-gas follow
CCCC[n+]1cccc(C)c1.O=S(=O)([N-]S(=O)(=O)C(F)(F)F)C(F)(F)F = 35.5
CCCC[n+]1ccc(C)cc1.O=S(=O)([N-]S(=O)(=O)C(F)(F)F)C(F)(F)F = 35
CCCC[n+]1cccc(C)c1.F[B-](F)(F)F [1-butyl-3-methylpyridinium tetrafluoroborate] = 47.1
CC[n+]1ccccc1.O=S(=O)([N-]S(=O)(=O)C(F)(F)F)C(F)(F)F [1-ethylpyridinium bis[(trifluoromethyl)sulfonyl]imide] = 35.5
CCCCCC[n+]1ccccc1.O=S(=O)([N-]S(=O)(=O)C(F)(F)F)C(F)(F)F [1-hexylpyridinium bis(trifluromethylsulfonyl)imide] = 33.9
CCCC[n+]1ccccc1.O=S(=O)([N-]S(=O)(=O)C(F)(F)F)C(F)(F)F [1-butylpyridinium bis[(trifluoromethyl)sulfonyl]imide] = 34.8
CCCC[n+]1ccccc1C.O=S(=O)([N-]S(=O)(=O)C(F)(F)F)C(F)(F)F = 36.3

In plain terms, CCCC[n+]1cccc(C)c1.O=S(=O)([O-])C(F)(F)F [1-butyl-3-methylpyridinium trifluoromethanesulfonate] has a documented surface tension liquid-gas of 38.2
